target: Capsid scaffolding protein (Human cytomegalovirus (strain AD169) (HHV-5) (Human herpesvirus 5)); assay: Concentration required for inhibition of human cytomegalo virus (HCMV) protease activity.; parameters: species or system Human herpesvirus 5 strain AD169
Sequence (P16753 1-256 limits assumed): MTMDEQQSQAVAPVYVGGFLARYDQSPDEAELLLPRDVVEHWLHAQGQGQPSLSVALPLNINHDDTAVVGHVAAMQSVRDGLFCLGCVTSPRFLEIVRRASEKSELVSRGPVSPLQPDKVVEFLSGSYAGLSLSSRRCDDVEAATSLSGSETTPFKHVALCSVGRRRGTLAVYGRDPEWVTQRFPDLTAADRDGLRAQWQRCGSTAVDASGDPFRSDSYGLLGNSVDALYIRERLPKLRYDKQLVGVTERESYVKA
TEST_READOUT: IC50

{"COMPOUND": "C[C@H]1C(=O)N(C(=O)C2CC2)[C@@H]2CCN(C(=O)CN(C)S(=O)(=O)c3cccc4c(N(C)C)cccc34)[C@H]21", "TEST_READOUT": "IC50", "OBSERVED_MEASUREMENT": "> 100 µM"}
{"COMPOUND": "CC(=O)N1C(=O)[C@H](C)[C@H]2[C@H]1CCN2C(=O)[C@@H]1CCCN1S(=O)(=O)c1cccc2c(N(C)C)cccc12", "TEST_READOUT": "IC50", "OBSERVED_MEASUREMENT": "> 500 µM"}
{"COMPOUND": "C[C@@H]1C(=O)N(C(=O)C2[C@@H](C)[C@@H]2C)[C@H]2CCN(C(=O)OCc3ccccc3)C12 (stereo partly specified)", "TEST_READOUT": "IC50", "OBSERVED_MEASUREMENT": "> 100 µM"}
{"COMPOUND": "COc1ccc(C(=O)N2C(=O)[C@@H](C)C3[C@@H]2CCN3C(=O)OCc2ccccc2)cc1 (stereo partly specified)", "TEST_READOUT": "IC50", "OBSERVED_MEASUREMENT": "> 500 µM"}
{"COMPOUND": "C[C@@H]1C(=O)N(C(=O)C2C(C)(C)C2(C)C)[C@H]2CCN(C(=O)OCc3ccccc3)C12 (stereo partly specified)", "TEST_READOUT": "IC50", "OBSERVED_MEASUREMENT": "> 500 µM"}
{"COMPOUND": "C[C@@H]1C(=O)N(CC(O)COc2ccccc2)[C@H]2CCN(C(=O)OCc3ccccc3)C12 (stereo partly specified)", "TEST_READOUT": "IC50", "OBSERVED_MEASUREMENT": "> 500 µM"}
